All values here come from patent US11179389B2.

Target: PI3Kalpha (Homo sapiens (Human))
Sequence (P42336 whole entry, canonical isoform): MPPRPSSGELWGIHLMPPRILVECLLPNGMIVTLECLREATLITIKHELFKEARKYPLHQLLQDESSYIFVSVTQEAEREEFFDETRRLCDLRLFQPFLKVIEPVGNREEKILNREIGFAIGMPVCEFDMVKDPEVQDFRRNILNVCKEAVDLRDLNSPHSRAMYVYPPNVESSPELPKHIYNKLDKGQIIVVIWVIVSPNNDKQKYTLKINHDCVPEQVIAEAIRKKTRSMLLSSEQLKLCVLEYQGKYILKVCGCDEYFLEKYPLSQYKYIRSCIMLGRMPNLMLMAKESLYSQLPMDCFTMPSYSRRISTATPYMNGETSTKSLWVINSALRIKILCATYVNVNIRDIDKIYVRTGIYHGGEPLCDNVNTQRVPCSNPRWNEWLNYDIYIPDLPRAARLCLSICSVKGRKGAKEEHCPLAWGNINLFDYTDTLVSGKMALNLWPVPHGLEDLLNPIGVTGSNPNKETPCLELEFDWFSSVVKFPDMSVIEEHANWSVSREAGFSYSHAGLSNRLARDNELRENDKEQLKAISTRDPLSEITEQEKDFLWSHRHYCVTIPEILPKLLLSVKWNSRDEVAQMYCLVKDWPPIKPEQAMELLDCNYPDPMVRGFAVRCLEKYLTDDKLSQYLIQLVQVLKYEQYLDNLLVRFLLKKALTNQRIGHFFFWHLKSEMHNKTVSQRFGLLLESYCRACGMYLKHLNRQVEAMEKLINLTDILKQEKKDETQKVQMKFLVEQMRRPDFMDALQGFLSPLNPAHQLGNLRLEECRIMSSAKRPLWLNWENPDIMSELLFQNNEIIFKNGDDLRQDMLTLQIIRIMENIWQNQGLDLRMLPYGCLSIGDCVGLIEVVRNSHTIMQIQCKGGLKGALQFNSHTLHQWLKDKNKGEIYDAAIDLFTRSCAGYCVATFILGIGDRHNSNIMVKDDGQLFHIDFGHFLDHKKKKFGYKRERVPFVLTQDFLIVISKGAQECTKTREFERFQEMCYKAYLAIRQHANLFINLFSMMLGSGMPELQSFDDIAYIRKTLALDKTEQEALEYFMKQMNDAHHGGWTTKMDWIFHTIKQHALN
Sequence (P27986 whole entry partner, canonical isoform): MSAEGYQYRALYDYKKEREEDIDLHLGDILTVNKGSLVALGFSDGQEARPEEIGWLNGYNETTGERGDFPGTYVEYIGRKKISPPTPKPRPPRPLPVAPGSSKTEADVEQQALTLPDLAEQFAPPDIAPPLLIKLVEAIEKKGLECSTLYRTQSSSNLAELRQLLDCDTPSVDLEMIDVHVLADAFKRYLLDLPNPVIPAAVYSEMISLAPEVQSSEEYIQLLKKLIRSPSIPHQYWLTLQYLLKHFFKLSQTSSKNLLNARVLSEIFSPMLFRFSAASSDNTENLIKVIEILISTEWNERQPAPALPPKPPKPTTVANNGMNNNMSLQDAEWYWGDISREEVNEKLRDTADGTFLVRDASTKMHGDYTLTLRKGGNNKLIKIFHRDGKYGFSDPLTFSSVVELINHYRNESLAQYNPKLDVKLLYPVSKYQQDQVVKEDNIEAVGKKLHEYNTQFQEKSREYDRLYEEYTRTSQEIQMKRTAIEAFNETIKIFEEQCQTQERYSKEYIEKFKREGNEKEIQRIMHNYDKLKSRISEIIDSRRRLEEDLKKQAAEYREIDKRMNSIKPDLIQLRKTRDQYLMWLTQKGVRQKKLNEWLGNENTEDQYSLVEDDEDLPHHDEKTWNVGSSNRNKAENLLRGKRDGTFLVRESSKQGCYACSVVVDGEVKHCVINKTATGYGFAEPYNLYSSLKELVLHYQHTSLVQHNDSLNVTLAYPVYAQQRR
Experiment: HTRF PI3K biochemical assay, alpha isoform (for selectivity ratio)
Details: ratio PI3K-alpha IC50 value / PI3K-delta IC50 value
Text: HTRF PI3K Biochemical Assay to Measure Intrinsic Potency of Compound Inhibitors The PI3-Kinase biochemical assays were developed to measure the intrinsic potency and compound dependent inhibition of the alpha, beta, delta, and gamma PI3K isoform enzymes. […]
A collection of compounds and their measured Selectivity versus PI3Kalpha

Known Selectivity versus PI3Kalpha results, listed for orientation:
compound="C[C@@H]1CN(c2cnc(C#N)c(-c3cnn(C)c3)n2)CCN1C(=O)N1CCC1 [Compound 1-37]" reported_measurement=>10
compound="C[C@@H]1CN(c2cnc(C#N)c(-c3cnn(C)c3)n2)CCN1C(=O)[C@@H]1C[C@@H]1F [Compound 1-29]" reported_measurement=>10

Problem: Check the records and state Selectivity versus PI3Kalpha for Cn1cc(-c2nc(N3CCC(C)(N4CCCCC4)CC3)cnc2C#N)cn1 [Compound 1-26]
Result: >10
